Each recorded value in this set is attributed to paper PMC4170002.

molecular target: JAK1 (Homo sapiens, UniProt P23458); test: TR-FRET STAT3 phosphorylation assay, JAK1; conditions: read-out: IC50 JAK1, 10 μM ATP, GFP-STAT3
Sequence (P23458 whole entry): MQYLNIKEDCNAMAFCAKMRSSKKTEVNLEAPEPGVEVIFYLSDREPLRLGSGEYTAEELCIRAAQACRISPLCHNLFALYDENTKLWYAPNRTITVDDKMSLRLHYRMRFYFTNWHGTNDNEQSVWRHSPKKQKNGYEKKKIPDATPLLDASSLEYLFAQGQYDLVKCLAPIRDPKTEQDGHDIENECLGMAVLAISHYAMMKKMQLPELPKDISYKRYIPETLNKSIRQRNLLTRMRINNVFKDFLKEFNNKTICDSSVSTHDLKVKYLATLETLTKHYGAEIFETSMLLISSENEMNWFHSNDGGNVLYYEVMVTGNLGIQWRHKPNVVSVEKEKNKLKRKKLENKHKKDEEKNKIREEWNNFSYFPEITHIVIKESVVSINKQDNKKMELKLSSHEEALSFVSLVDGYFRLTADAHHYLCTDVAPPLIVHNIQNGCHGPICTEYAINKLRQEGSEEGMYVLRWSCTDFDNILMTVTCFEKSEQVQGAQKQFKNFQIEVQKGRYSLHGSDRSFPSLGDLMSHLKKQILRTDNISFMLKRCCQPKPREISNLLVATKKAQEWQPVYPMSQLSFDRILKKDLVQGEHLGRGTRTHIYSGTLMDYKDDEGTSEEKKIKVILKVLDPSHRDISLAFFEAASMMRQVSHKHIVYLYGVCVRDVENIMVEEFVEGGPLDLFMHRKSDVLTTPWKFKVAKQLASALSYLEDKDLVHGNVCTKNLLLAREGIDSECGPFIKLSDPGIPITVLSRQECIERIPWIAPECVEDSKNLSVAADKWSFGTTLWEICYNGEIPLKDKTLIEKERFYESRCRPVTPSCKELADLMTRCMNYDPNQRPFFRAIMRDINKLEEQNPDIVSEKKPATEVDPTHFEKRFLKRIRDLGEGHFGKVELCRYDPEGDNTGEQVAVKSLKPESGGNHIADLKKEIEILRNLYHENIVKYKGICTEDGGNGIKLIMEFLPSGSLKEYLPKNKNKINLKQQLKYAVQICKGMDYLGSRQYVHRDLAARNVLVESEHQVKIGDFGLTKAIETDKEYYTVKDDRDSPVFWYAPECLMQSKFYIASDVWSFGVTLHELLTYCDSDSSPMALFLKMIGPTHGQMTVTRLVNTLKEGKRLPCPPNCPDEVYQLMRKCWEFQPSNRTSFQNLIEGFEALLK
PARAMETER: IC50
Write down the value, and be sure its unit follows.

Problem: Find the recorded IC50 belonging to NC(=O)c1nc(-c2c(F)cccc2Cl)oc1Nc1ccc(C(=O)N2CCOCC2)cc1 and report it.
Result: 59 nM

====

molecular target: JAK1 (Homo sapiens, UniProt P23458); test: IL-6-induced pSTAT3 in primary CD4+ cells; type: cell-based; conditions: read-out: IC50 JAK1, pSTAT (primary cells), IL-6, pSTAT3
PARAMETER: pIC50
Please report pIC50 as the negative decimal logarithm of the molar concentration, giving only the number.

Problem: Find the recorded pIC50 belonging to NC(=O)c1nc(-c2c(F)cccc2Cl)oc1Nc1ccc(C(=O)N2CCOCC2)cc1 and report it.
Result: 6.37
